- system name: H3 receptor (Cavia porcellus)
- Construct: the longitudinal muscle layer and adhering myenteric plexus was teased away; from tissue; host or cells: ileal longitudinal muscle with adhering myenteric plexus of male Dunkin-Hartley guinea pigs
- Sequence (Q9JI35 whole entry): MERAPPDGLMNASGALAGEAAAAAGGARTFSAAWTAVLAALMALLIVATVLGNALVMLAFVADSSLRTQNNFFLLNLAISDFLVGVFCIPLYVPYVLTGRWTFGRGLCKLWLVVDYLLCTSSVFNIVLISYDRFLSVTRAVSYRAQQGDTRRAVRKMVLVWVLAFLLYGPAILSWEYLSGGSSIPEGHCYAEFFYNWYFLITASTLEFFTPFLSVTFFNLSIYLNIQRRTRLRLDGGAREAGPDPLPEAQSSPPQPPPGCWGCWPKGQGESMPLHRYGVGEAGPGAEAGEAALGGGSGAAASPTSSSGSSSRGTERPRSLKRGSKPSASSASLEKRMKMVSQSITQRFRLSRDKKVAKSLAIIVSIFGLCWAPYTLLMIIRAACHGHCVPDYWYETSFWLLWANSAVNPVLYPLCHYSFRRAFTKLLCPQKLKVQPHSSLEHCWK
- protocol summary: H3 receptor bioassay (functional assay), guinea pig ileal longitudinal muscle myenteric plexus
- Type: cell-based
- assay conditions: antagonism of R-(α)-methylhistamine E/[A] curve, Schild's methods; electrically stimulated guinea pig ileum; variance ±0.15 log units; read-out: pKB (functional assay) (converted)
measured quantity: log10 of Kb (log10 of the value in nM)
# log10 transformed; quantity=Kb; unit=nM

Take a look at these entries with their results.
Q) // returns reported log10 of Kb for input O=S(=O)(NCCCCCCCCCCc1c[nH]cn1)c1ccc2ccccc2c1 [Example 31]
A) 3.21

Q) What do you have for O=S(=O)(CCc1ccc(Cl)cc1)NCCCCc1c[nH]cn1 [Example 55] ?
A) 0.78

// each listed molecule needs a value for log10 of Kb
1. O=S(=O)(NCCCc1c[nH]cn1)c1ccc2ccccc2c1 [Example 28]
2. O=S(=O)(NCCCCc1c[nH]cn1)NCc1cccc(Cl)c1 [Example 42]
3. O=S(=O)(NCCCCCc1c[nH]cn1)c1ccc2ccccc2c1 [Example 6]

A)
1. 3.61
2. 1.14
3. 2.04
